System Name: T1, human DR5 (recombinant, fusion format not stated for the assay) (human, UniProt O14763 56-207)
T1 construct: all antigen constructs carry ECD aa 56-207; also called hu DR5; huDR5
Assay Summary: binding to human DR5 after stress test, pH 7.4, 2 weeks 40° C., against non-stressed initial material (defined 100%)
Field: Relative active concentration as compared to the initial state. Provide a value for each of the binders that follow.
One number for each entry, in %.

Quick one: Relative active concentration as compared to the initial state for DR5TAA-0067 (antibody, human IgG1, kappa, L234A L235A, V domains shown, humanized variant of DR5TAA-0011; also called VH7/VL15) VH: EVQLVETGGGLIQPGGSLRLSCAASGFTVSRYAMIWVRQAPGKGLEYIGFITSDGSTYYADSAKGRFTISRDNSKNTLYLQMNSLRAEDTAVYYCARYTYSDGTDLWGRGTLVTVSS VL: DIQMTQSPSTLSASVGDRVTITCRASQSISTYLSWYQQKPGKAPKRLIYKASSLASGVPSRFSGSGSGTEFTLTISSLQPDDAATYYCQPNSGIATYGAAFGGGTKVEIKR ?
107

Now, please, on to the next binder.
Quick one: Relative active concentration as compared to the initial state for DR5TAA-0066 (antibody, human IgG1, kappa, L234A L235A, V domains shown, humanized variant of DR5TAA-0011; also called VH7/VL3) VH: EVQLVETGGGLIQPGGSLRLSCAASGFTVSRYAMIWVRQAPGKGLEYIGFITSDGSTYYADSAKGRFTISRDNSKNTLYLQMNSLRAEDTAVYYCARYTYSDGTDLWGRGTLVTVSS VL: DIQMTQSPSSLSASVGDRVTITCRASQSISTYLSWYQQKPGKAPKRLIYKASTLASGVPSRFSGSGSGTDFTLTISSLQPEDAATYYCQPNSGIATYGAAFGGGTKVEIKR ?
100
